# system_name: M4 muscarinic receptor (Homo sapiens, UniProt P08173)
# Construct: expressed in transfected cells; host or cells: CHO (M4-CHO)
# Sequence (P08173 whole entry): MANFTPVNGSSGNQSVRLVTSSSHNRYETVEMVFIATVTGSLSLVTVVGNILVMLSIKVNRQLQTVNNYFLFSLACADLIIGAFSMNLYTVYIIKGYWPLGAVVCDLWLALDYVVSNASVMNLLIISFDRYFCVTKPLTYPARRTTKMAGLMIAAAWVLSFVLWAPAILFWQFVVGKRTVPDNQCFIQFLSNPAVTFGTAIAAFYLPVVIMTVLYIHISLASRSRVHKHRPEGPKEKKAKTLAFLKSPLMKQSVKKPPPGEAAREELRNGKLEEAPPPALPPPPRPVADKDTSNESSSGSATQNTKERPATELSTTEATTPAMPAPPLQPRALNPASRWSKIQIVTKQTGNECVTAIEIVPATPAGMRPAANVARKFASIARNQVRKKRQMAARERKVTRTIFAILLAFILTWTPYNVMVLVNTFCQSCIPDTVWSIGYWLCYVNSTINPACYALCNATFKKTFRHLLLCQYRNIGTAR
# measurement_description: Functional mobilization of intracellular calcium (FLIPR) in M4-CHO cells
# Type: cell-based
# setup_conditions: M4 receptor, calcium mobilization; read-out: M4 Efficacy
I'd appreciate it if you could supply Emax values for the items below.

# input Observed Emax on M4 muscarinic receptor (Homo sapiens, UniProt P08173) for CN(C)C(=O)N1CC2(CCN(C3CCN(C(=O)OCCF)CC3)CC2)c2cc(F)ccc21 [compound 48] , please.
# output 65 to 85%

# input Same thing, different molecule: Cc1ccc2c(c1)C1(CCN(C3CC4CCC3C4)CC1)CN2 (centres unmarked) [compound 350]
# output > 85%

# input Same thing, different molecule: O=C1CC2(CCN(C3CCCCCC3)CC2)c2ccccc2N1 [compound 242]
# output > 85%

# input Same thing, different molecule: CC(C)OC(=O)N1C2CCC1CC(N1CCC3(CC1)CN(C(=O)C1CC1)c1ccc(F)cc13)C2 (centres unmarked) [compound 345]
# output < 65%

# input Same thing, different molecule: CC(=O)N1CC2(CCN(CC3CC4CCC3CC4)CC2)c2cc(F)ccc21 (centres unmarked) [compound 366]
# output < 65%

# input Same thing, different molecule: CCOC(=O)N1CCC(CN2CCC3(CC2)CN(C(C)=O)c2ccc(Cl)cc23)CC1 [compound 256]
# output < 65%

# input Same thing, different molecule: CCCC(=O)N1CC2(CCN(C3CCN(C(=O)OCC)CC3)CC2)c2cc(F)ccc21 [compound 324]
# output 65 to 85%

# input Same thing, different molecule: CCOC(=O)N1C2CCC1CC(N1CCC3(CC1)CN(S(C)(=O)=O)c1ccc(F)cc13)C2 (centres unmarked) [compound 103]
# output < 65%

###

I'd appreciate it if you could supply Emax values for the items below.
# system_name: M1 muscarinic receptor (Homo sapiens)
# Construct: expressed in transfected cells; host or cells: CHO (M1-CHO)
# measurement_description: Functional mobilization of intracellular calcium (FLIPR) in M1-CHO cells
# Assay type: cell-based
# setup_conditions: M1 receptor, calcium mobilization; read-out: M1 Efficacy

# input Entry CCCCOC(=O)N1C2CCC1CC(N1CCC3(CC1)COc1ccc(F)cc13)C2 (stereo not shown) has what Emax?
# output < 65%

# input Same thing, different compound: CCCOC(=O)N1C2CCC1CC(N1CCC3(CC1)CN(C(=O)N(C)C)c1ccc(F)cc13)C2 (stereo not shown)
# output 65 to 85%

# input Same thing, different compound: CS(=O)(=O)N1CC2(CCN(C3CC4CCC(C3)N4C(=O)O[C@@H]3CCOC3)CC2)c2cc(F)ccc21 (stereo partly shown)
# output 65 to 85%

# input Same thing, different compound: `CCOC(=O)N1CCC(C)(CN2CCC3(CC2)C[C@H](NC(C)=O)c2ccccc23)CC1`
# output < 65%

# input Same thing, different compound: `CCOC(=O)N1CCC(N2CCC3(CC2)CN(C(=O)c2ccncc2)c2ccc(F)cc23)CC1`
# output 65 to 85%

# input Same thing, different compound: O=C(OCC(F)F)N1C2CCC1CC(N1CCC3(CC1)COc1ccc(F)cc13)C2 (stereo not shown)
# output > 85%

# input Same thing, different compound: `CC(=O)N(C)[C@@H]1CC2(CCN(C[C@H]3C[C@H]4CC[C@H]3C4)CC2)c2ccccc21`
# output < 65%

###

# system_name: M4 muscarinic receptor (Homo sapiens, UniProt P08173)
# Construct: expressed in transfected cells; host or cells: CHO (M4-CHO)
# measurement_description: Functional mobilization of intracellular calcium (FLIPR) in M4-CHO cells
# Type: cell-based
# setup_conditions: Table 4; 100% efficacy is the maximum response obtained with the Carbachol control
I'd appreciate it if you could supply Emax values for the items below.

# input Entry `CCCOC(=O)N1CC[C@@H](CN2CCC3(CC2)CN(C(=O)N(C)C)c2ccc(F)cc23)C1` has what Emax?
# output 25 to 100%

# input Same thing, different molecule: `CCC#CCOC(=O)N1CCC(N2CCC3(CC2)CN(C(=O)N(C)C)c2ccc(F)cc23)CC1`
# output 25 to 100%

# input Same thing, different molecule: `CCOC(=O)N1CCC(N2CCC3(CC2)CN(C(C)=O)c2c(C(F)(F)F)cccc23)CC1`
# output 25 to 100%

# input Same thing, different molecule: `C#CCCOC(=O)N1CCC(N2CCC3(CC2)CN(CCOC)c2ccc(F)cc23)CC1`
# output 25 to 100%

# input Same thing, different molecule: CCOC(=O)C1CC1CN1CCC2(CC1)C[C@H](NC(C)=O)c1ccccc12 (stereo partly shown)
# output < 25%

# input Same thing, different molecule: `CC(=O)N1CC2(CCN(CC3=CCC4C[C@@H]3C4(C)C)CC2)c2cc(F)ccc21`
# output < 25%

# input Same thing, different molecule: `CN(C)C(=O)N1CC2(CCN(C3CCN(c4cncnc4)CC3)CC2)c2cc(F)ccc21`
# output 25 to 100%

# input Same thing, different molecule: `CC(=O)N1CCC(N2CCC3(CC2)CN(C(=O)N(C)C)c2ccc(F)cc23)CC1`
# output < 25%

# input Same thing, different molecule: O=C1CC2(CCN(CC3CC4C=CC3C4)CC2)c2ccc(Cl)cc21 (stereo not shown)
# output 25 to 100%

# input Same thing, different molecule: `CC(=O)N[C@H]1CCC2(CCN(C3CC(C)(C)CC(C)(C)C3)CC2)c2ccccc21`
# output < 25%

# input Same thing, different molecule: `CN(C)C(=O)CN1CC2(CCN(C[C@@H]3C[C@H]4C=CC3C4)CC2)c2cc(F)ccc21`
# output 25 to 100%

# input Same thing, different molecule: `CCOC(=O)N1CCC(N2CCC3(CC2)CN(c2ccncc2)c2ccc(F)cc23)CC1`
# output 25 to 100%

# input Same thing, different molecule: CC#CC(C)OC(=O)N1C2CCC1CC(N1CCC3(CC1)CN(C(C)=O)c1ccccc13)C2 (stereo not shown)
# output 25 to 100%

# input Same thing, different molecule: `CCC#CCOC(=O)N1CC[C@H](CN2CCC3(CC2)CN(C(=O)N(C)C)c2ccc(F)cc23)C1`
# output 25 to 100%

# input Same thing, different molecule: `CCOC(=O)N1CCC(N2CCC3(CC2)CN(C(C)=O)c2c(C4CCCC4)cccc23)CC1`
# output < 25%

# input Same thing, different molecule: `CCOC(=O)N1CCC(N2CCC3(CC2)CN(C(C)=O)c2ccc(C#N)cc23)CC1`
# output 25 to 100%

###

I'd appreciate it if you could supply Emax values for the items below.
# system_name: M1 muscarinic receptor (Homo sapiens, UniProt P11229)
# Construct: expressed in transfected cells; host or cells: CHO (M1-CHO)
# Sequence (P11229 whole entry): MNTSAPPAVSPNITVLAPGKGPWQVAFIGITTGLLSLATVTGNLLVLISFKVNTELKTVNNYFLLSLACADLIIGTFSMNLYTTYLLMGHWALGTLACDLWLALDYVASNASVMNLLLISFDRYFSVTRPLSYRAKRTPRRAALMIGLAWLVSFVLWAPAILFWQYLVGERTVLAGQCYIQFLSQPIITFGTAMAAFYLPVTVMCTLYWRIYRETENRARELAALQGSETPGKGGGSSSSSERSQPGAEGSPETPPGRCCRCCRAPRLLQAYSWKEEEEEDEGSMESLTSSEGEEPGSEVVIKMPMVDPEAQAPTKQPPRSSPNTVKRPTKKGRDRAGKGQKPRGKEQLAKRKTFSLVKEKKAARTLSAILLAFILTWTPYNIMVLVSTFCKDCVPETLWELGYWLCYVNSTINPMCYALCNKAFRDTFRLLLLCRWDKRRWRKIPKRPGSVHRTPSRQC
# measurement_description: Functional mobilization of intracellular calcium (FLIPR) in M1-CHO cells
# Type: cell-based
# setup_conditions: Table 4; 100% efficacy is the maximum response obtained with the Carbachol control

# input Entry `CC(=O)N[C@H]1CCC2(CCN([C@@H]3CC4CC[C@@H]3C4)CC2)c2ccccc21` has what Emax?
# output 25 to 100%

# input Same thing, different compound: `c1ccc2c(c1)CCCC21CCN(CC2CCCCC2)CC1`
# output 25 to 100%

# input Same thing, different compound: COCCOC(=O)N1CCCC(N2CCC3(CC2)CN(C(=O)N(C)C)c2ccc(F)cc23)CC1 (centres unmarked)
# output 25 to 100%

# input Same thing, different compound: `CCOC(=O)N1CCC(N2CCC3(CC2)CN(C(C)=O)c2c(Br)cccc23)CC1`
# output 25 to 100%

# input Same thing, different compound: `CCOC(=O)N1CCC(N2CCC3(CC2)CN(c2ccc(C)nn2)c2ccc(F)cc23)CC1`
# output > 100%

# input Same thing, different compound: CC(=O)N1CC2(CCN(C3CCN(C(=O)OC(C)C)C3)CC2)c2cc(F)ccc21 (centres unmarked)
# output < 25%

# input Same thing, different compound: `CCCCOC(=O)N1CCC(N2CCC3(CC2)CN(C(C)=O)c2ccccc23)CC1`
# output 25 to 100%

# input Same thing, different compound: `O=C(N[C@H]1CC2(CCN(CC3CCCCC3)CC2)c2ccccc21)c1ccoc1`
# output 25 to 100%

###

# system_name: M1 muscarinic receptor (Homo sapiens)
# Construct: expressed in transfected cells; host or cells: CHO (M1-CHO)
# measurement_description: Functional mobilization of intracellular calcium (FLIPR) in M1-CHO cells
# Format: cell-based
# setup_conditions: M1-CHO cells, calcium mobilization (FLIPR); read-out: M1 Efficacy
# Description: Functional Mobilization of Intracellular Calcium to Determine Muscarinic Receptor Activity: […] Compounds are prepared at a 2× fold concentration in a 96-well plate (round bottom, Costar Corning cat# 3656), by reconstituting the pre-spotted compounds in bath 1 containing 1 mM probenecid. […] In both assay modes, the fluorescence is recorded for 60 sec (excitation wavelength is […] and emission wavelength 540 nm) using the FLIPR 3 instrument. […]
metric: Emax

# input Observed Emax on M1 muscarinic receptor (Homo sapiens) for CCOC(=O)N1C2CCC1CC(N1CCC3(CC1)CN(C(C)=O)c1ccc(Cl)cc13)C2 (centres unmarked) , please.
# output < 65%

# input Same thing, different molecule: CCOC(=O)N1C2CCC1CC(N1CCC3(CC1)CN(C(=O)OC1CCC1)c1ccc(F)cc13)C2 (centres unmarked)
# output > 85%

# input Same thing, different molecule: `CCOC(=O)N1CCC(N2CCC3(CC2)CN(C(C)=O)c2c(F)cccc23)CC1`
# output 65 to 85%

# input Same thing, different molecule: `CC(=O)N[C@H]1CC2(CCN(CC3CCN(C(=O)OC(C)C)CC3)CC2)c2ccccc21`
# output 65 to 85%

# input Same thing, different molecule: `CCOC(=O)N1CCC(N2CCC3(CC2)CN(C(=O)c2ccc4c(c2)OCO4)c2ccc(F)cc23)CC1`
# output 65 to 85%

# input Same thing, different molecule: `CC(=O)N1CC2(CCN(C3CCN(C(=O)O[C@H]4CCOC4)CC3)CC2)c2cc(F)ccc21`
# output < 65%

# input Same thing, different molecule: `CC(=O)N1CC2(CCN(C3CCN(C(=O)OC(C)C)CC3)CC2)c2cc(C)ccc21`
# output 65 to 85%

# input Same thing, different molecule: CCCOC(=O)N1C2CCC1CC(N1CCC3(CC1)CN(C(=O)C1CC1)c1ccc(F)cc13)C2 (centres unmarked)
# output 65 to 85%
